# Number of dropped mice, rotating rod test annotations
- Test system: male dd mice
- TEST DESCRIPTION: Muscle relaxant activity: rotating rod test
- Assay type: in vivo
- COND: 150 mg/kg p.o., 1 hr, 5 mice per group
MEASUREMENT LABEL: Number of dropped mice, rotating rod test (mice)

>  <MOLECULE>
COc1ccc2oc(C(=O)N(C)C)c(C)c2c1 [Compound (F)]

>  <SYSTEM TESTED>
male dd mice

>  <QUANTITATIVE READOUT>
1

$$$$
>  <MOLECULE>
Cc1ccc2oc(C(=O)N(C)C)c(C)c2c1 [Compound (E)]

>  <SYSTEM TESTED>
male dd mice

>  <QUANTITATIVE READOUT>
1

$$$$
>  <MOLECULE>
Cc1c(C(=O)N(C)C)oc2ccc(Cl)cc12 [Compound (G)]

>  <SYSTEM TESTED>
male dd mice

>  <QUANTITATIVE READOUT>
5

$$$$
>  <MOLECULE>
Cc1c(C(=O)N(C)C)oc2cccc(Cl)c12 [Compound (A)]

>  <SYSTEM TESTED>
male dd mice

>  <QUANTITATIVE READOUT>
5

$$$$
>  <MOLECULE>
Cc1c(C(=O)N(C)C)oc2cc(Cl)ccc12 [Compound (B)]

>  <SYSTEM TESTED>
male dd mice

>  <QUANTITATIVE READOUT>
5

$$$$
>  <MOLECULE>
COc1cc(C)nc(-n2nc(C)cc2OC)n1 [Mepirizole, mepirizole, reference compound]

>  <SYSTEM TESTED>
male dd mice

>  <QUANTITATIVE READOUT>
5

$$$$
>  <MOLECULE>
Cc1c(C(=O)N(C)C)oc2ccc(F)cc12 [Compound (D)]

>  <SYSTEM TESTED>
male dd mice

>  <QUANTITATIVE READOUT>
5

$$$$
